The reported numbers originate from paper PMC3871589.

target: EGFR (Homo sapiens)
Sequence (P00533 25-1210): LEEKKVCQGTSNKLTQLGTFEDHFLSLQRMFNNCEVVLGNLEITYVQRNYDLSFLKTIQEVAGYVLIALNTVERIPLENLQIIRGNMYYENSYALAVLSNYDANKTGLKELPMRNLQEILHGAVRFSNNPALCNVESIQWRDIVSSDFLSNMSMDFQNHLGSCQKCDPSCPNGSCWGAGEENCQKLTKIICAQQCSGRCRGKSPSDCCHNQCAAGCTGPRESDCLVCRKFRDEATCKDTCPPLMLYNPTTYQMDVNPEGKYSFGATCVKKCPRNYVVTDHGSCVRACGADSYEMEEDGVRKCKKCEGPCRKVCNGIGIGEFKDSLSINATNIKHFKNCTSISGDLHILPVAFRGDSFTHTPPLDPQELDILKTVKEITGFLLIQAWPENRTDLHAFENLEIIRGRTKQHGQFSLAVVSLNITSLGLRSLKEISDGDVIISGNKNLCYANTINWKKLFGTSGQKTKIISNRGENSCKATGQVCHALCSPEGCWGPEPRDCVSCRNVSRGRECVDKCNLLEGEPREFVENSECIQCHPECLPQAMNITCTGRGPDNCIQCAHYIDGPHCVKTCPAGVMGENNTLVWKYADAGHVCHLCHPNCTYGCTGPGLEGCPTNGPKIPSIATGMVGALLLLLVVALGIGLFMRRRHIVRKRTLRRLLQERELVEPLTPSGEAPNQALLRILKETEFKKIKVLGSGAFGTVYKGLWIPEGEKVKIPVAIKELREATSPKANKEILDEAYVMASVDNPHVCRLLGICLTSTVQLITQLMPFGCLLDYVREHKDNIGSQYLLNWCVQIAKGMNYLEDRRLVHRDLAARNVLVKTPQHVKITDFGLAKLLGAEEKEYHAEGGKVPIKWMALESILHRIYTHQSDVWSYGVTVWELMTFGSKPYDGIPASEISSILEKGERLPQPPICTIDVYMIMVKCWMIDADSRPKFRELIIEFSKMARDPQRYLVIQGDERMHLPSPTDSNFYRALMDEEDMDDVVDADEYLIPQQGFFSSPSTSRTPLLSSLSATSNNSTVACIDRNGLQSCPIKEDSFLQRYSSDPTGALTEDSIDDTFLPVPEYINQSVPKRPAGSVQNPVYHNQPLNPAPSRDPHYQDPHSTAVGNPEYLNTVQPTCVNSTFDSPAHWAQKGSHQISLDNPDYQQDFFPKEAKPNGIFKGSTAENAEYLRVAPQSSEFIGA
metric name: IC50

1) NS(=O)(=O)c1cccc2c1C(=O)c1cccc(O)c1C2=O ... ≥ 77.9 µM
